- Organism: Cavia porcellus
- methodNotes: Ratio of Ki for sigma2 receptor in Hartley guinea pig brain to Ki for sigma1 receptor in Hartley guinea pig brain

# testSmiles, Ratio Ki
measured = [
    ("COc1ccc(CN2CCN(CCCc3ccccc3)CC2)cc1", 43.2),
    ("Brc1ccccc1CN1CCN(CCCc2ccccc2)CC1", 6.9),
    ("O=[N+]([O-])c1ccccc1CN1CCN(CCCc2ccccc2)CC1", 1.4),
    ("Cc1ccc(CN2CCN(CCCc3ccccc3)CC2)cc1", 15),
    ("Ic1cccc(CN2CCN(CCCc3ccccc3)CC2)c1", 2.6),
    ("c1ccc(CCCN2CCN(Cc3ccccc3)CC2)cc1", 52),
    ("O=[N+]([O-])c1cccc(CN2CCN(CCCc3ccccc3)CC2)c1", 1.7),
    ("O=[N+]([O-])c1ccc(CN2CCN(CCCc3ccccc3)CC2)cc1", 8.9),
    ("COc1cccc(CN2CCN(CCCc3ccccc3)CC2)c1", 16.3),
    ("Fc1cccc(CN2CCN(CCCc3ccccc3)CC2)c1", 10.2),
]

---

- tgt: Sigma non-opioid intracellular receptor 1 (Cavia porcellus, UniProt Q60492)
- Sequence (Q60492 whole entry): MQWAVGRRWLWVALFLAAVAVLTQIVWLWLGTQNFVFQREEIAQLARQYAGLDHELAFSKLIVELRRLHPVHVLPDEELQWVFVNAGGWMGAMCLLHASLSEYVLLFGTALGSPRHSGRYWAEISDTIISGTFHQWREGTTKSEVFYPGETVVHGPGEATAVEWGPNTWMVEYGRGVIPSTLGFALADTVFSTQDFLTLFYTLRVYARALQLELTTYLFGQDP
- methodNotes: Displacement of [3H](+)-PTZ from sigma1 receptor in Hartley guinea pig brain
observationType: Ki (pM)

# testSmiles, valueObserved
rows = [
    ("COc1ccc(CN2CCN(CCCc3ccccc3)CC2)cc1", 760),
    ("c1ccc(CCCN2CCN(Cc3ccccc3)CC2)cc1", 660),
    ("Ic1cccc(CN2CCN(CCCc3ccccc3)CC2)c1", 390),
    ("Cc1ccc(CN2CCN(CCCc3ccccc3)CC2)cc1", 1170),
]

---

- methodNotes: Displacement of [3H]DTG from sigma2 receptor in Hartley guinea pig brain
- Design: species or system Cavia porcellus
pKi: −log10 of the molar value.
// label = satisfied if pKi is not less than 8, otherwise not satisfied

# compound, categoryLabel
measured = [
    ("O=[N+]([O-])c1cccc(CN2CCN(CCCc3ccccc3)CC2)c1", "satisfied"),
    ("COc1ccc(CN2CCN(CCCc3ccccc3)CC2)cc1", "not satisfied"),
    ("COc1ccc(CCN2CCN(CCCc3ccccc3)CC2)cc1OC [[11C]SA4503]", "not satisfied"),
    ("O=[N+]([O-])c1ccc(CN2CCN(CCCc3ccccc3)CC2)cc1", "satisfied"),
    ("Brc1ccccc1CN1CCN(CCCc2ccccc2)CC1", "satisfied"),
    ("Ic1cccc(CN2CCN(CCCc3ccccc3)CC2)c1", "satisfied"),
    ("Cc1ccc(CN2CCN(CCCc3ccccc3)CC2)cc1", "not satisfied"),
    ("O=[N+]([O-])c1ccccc1CN1CCN(CCCc2ccccc2)CC1", "satisfied"),
    ("c1ccc(CCCN2CCN(Cc3ccccc3)CC2)cc1", "not satisfied"),
]

---

- tgt: Sigma non-opioid intracellular receptor 1 (Cavia porcellus, UniProt Q60492)
- methodNotes: Displacement of [3H](+)-PTZ from sigma1 receptor in Hartley guinea pig brain

# testSmiles, Ki
data = [
    ("O=[N+]([O-])c1ccccc1CN1CCN(CCCc2ccccc2)CC1", "2.8 nM"),
    ("O=[N+]([O-])c1cccc(CN2CCN(CCCc3ccccc3)CC2)c1", "0.93 nM"),
    ("O=[N+]([O-])c1ccc(CN2CCN(CCCc3ccccc3)CC2)cc1", "0.37 nM"),
    ("Brc1ccccc1CN1CCN(CCCc2ccccc2)CC1", "0.6 nM"),
    ("Fc1cccc(CN2CCN(CCCc3ccccc3)CC2)c1", "1.36 nM"),
    ("COc1cccc(CN2CCN(CCCc3ccccc3)CC2)c1", "0.87 nM"),
]

---

# Activity values compiled below
- tgt: Mu-type opioid receptor (Cavia porcellus)
- methodNotes: Displacement of [3H]DAMGO from mu opioid receptor in guinea pig brain
- Set-up: concentration or dose not given beside the values

# testSmiles, tgt, Activity
rows = [
    ("Fc1cccc(CN2CCN(CCCc3ccccc3)CC2)c1", "Mu-type opioid receptor (Cavia porcellus)", "< 5%"),
    ("COc1ccc(CN2CCN(CCCc3ccccc3)CC2)cc1", "Mu-type opioid receptor (Cavia porcellus)", "< 5%"),
    ("c1ccc(CCCN2CCN(Cc3ccccc3)CC2)cc1", "Mu-type opioid receptor (Cavia porcellus)", "< 5%"),
    ("O=[N+]([O-])c1ccccc1CN1CCN(CCCc2ccccc2)CC1", "Mu-type opioid receptor (Cavia porcellus)", "< 5%"),
    ("Brc1ccccc1CN1CCN(CCCc2ccccc2)CC1", "Mu-type opioid receptor (Cavia porcellus)", "< 5%"),
    ("COc1cccc(CN2CCN(CCCc3ccccc3)CC2)c1", "Mu-type opioid receptor (Cavia porcellus)", "< 5%"),
    ("O=[N+]([O-])c1ccc(CN2CCN(CCCc3ccccc3)CC2)cc1", "Mu-type opioid receptor (Cavia porcellus)", "< 5%"),
    ("Ic1cccc(CN2CCN(CCCc3ccccc3)CC2)c1", "Mu-type opioid receptor (Cavia porcellus)", "< 5%"),
    ("O=[N+]([O-])c1cccc(CN2CCN(CCCc3ccccc3)CC2)c1", "Mu-type opioid receptor (Cavia porcellus)", "< 5%"),
    ("Cc1ccc(CN2CCN(CCCc3ccccc3)CC2)cc1", "Mu-type opioid receptor (Cavia porcellus)", "< 5%"),
]

---

- tgt: D(2) dopamine receptor (Homo sapiens)
- Sequence (P14416 whole entry): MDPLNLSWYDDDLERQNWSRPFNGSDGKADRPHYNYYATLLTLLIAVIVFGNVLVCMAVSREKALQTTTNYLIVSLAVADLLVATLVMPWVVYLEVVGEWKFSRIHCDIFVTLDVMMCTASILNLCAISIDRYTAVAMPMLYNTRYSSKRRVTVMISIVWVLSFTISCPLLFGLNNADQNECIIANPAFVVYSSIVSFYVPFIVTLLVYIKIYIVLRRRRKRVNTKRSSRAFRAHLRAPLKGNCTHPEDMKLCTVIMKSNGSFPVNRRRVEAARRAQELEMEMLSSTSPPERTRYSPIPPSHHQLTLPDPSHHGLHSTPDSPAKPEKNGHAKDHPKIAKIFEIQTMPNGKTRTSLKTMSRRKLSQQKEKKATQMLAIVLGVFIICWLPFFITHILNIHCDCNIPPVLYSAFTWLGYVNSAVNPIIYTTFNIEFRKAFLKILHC
- methodNotes: Binding affinity to dopamine D2 receptor
pIC50: −log10 of the molar value.
observationType: pIC50

# testSmiles, valueObserved
records = [
    ("c1ccc(CCCN2CCN(Cc3ccccc3)CC2)cc1", "< 7.00"),
]

---

- tgt: Sigma non-opioid intracellular receptor 1 (Cavia porcellus, UniProt Q60492)
- methodNotes: Displacement of [3H]pentazocine from sigma1 receptor in guinea pig membrane
- Type: cell membranes
pIC50: −log10 of the molar value.
# pIC50 values compiled below
observationType: pIC50

# molecule, valueObserved
records = [
    ("COc1ccc2c(c1)[C@]13CCCC[C@@H]1[C@H](C2)N(C)CC3 [DEXTROMETHORPHAN]", 6.63),
    ("c1ccc(CCCN2CCN(Cc3ccccc3)CC2)cc1", 8.83),
]
